# IC50 per record follows
# System Name: KRAS WT (Homo sapiens, UniProt P01116+P62937)
# Sequence (P01116 1-169 isoform P01116-2 limits assumed): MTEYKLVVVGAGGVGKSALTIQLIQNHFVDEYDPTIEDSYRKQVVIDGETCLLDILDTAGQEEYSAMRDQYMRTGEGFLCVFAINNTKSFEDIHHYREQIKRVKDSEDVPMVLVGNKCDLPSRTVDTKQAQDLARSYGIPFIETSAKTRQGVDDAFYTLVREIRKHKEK
# Sequence (P62937 whole entry): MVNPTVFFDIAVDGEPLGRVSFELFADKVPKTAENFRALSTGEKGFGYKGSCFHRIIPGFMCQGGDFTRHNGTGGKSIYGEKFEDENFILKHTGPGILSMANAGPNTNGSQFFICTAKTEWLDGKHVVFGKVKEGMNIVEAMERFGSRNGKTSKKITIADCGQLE
# Assay Details: Ras-Raf disruption / FRET / MOA assay (BRAF RBD)
# Format: biochemical
# Applied Conditions: Ras-Raf disruption, with Cyclophilin A; read-out: KRAS WT FRET data IC50
Observable: IC50

# Compound, Test Result
measured = [
    ("CCn1c(-c2cccnc2[C@H](C)OC)c2c3cc(ccc31)-c1cc(O)cc(c1)C[C@H](NC(=O)[C@H](C1CCCC1)N(C)C(=O)[C@H]1CCN(C[C@H]3CN3)C1=O)C(=O)N1CCC[C@H](N1)C(=O)OCC(C)(C)C2 [Example 58]", "10 to 100 nM"),
    ("CCn1c(-c2cccnc2[C@H](C)OC)c2c3cc(ccc31)-c1csc(n1)C[C@H](NC(=O)[C@H](C(C)C)N(C)C(=O)N(C)[C@H]1CCN(C(=O)[C@@H]3CN3)C1)C(=O)N1CCC[C@H](N1)C(=O)OCC(C)(C)C2 (atropisomer, axis not shown) [Example 310]", "100 to 1000 nM"),
]

---

# System Name: KRAS WT (Homo sapiens, UniProt P01116+P62937)
# Assay Details: Disruption of BRAF RBD interaction with Ras (FRET / MOA assay, with Cyclophilin A)
# Assay type: biochemical
# Applied Conditions: KRAS WT; read-out: KRAS WT FRET data IC50

# Molecule, IC50
data = [
    ("C=CC(=O)N1CC[C@H](C(=O)N(C)[C@H](C(=O)N[C@H]2Cc3cc(O)cc(c3)-c3ccc4c(c3)c(c(-c3nccnc3COC)n4CC)CC(C)(C)COC(=O)[C@@H]3CCCN(N3)C2=O)C(C)C)C1", "> 10000 nM"),
    ("CCn1c(-c2cccnc2[C@H](C)OC)c2c3cc(ccc31)-c1cc(O)cc(c1)C[C@H](NC(=O)[C@H](C(C)C)N(C)C(=O)[C@H]1CCN(C(=O)CN(C)C)C1)C(=O)N1CCC[C@H](N1)C(=O)OCC(C)(C)C2", "10 to 100 nM"),
    ("CCn1c(-c2cccnc2[C@H](C)OC)c2c3cc(ccc31)-c1csc(n1)C[C@H](NC(=O)[C@H](C(C)C)N(C)C(=O)[C@H]1CCN(C)C1)C(=O)N1CCC[C@H](N1)C(=O)OCC(C)(C)C2", "1000 to 10000 nM"),
    ("CCn1c(-c2cccnc2[C@H](C)OC)c2c3cc(ccc31)-c1csc(n1)C[C@H](NC(=O)[C@H](CC1CC1)N(C)C(=O)N1CC(OC)C1)C(=O)N1CCC[C@H](N1)C(=O)OCC(C)(C)C2 (atropisomer, axis not shown)", "10 to 100 nM"),
    ("CCn1c(-c2cccnc2[C@H](C)OC)c2c3cc(ccc31)-c1cc(O)cc(c1)C[C@H](NC(=O)[C@H](C(C)C)N(C)C(=O)[C@H]1CCN(C(=O)[C@@H]3CCCN3C)C1)C(=O)N1CCC[C@H](N1)C(=O)OCC(C)(C)C2", "10 to 100 nM"),
    ("CCn1c(-c2cc(C3CCN(C)CC3)cnc2[C@H](C)OC)c2c3cc(ccc31)-c1csc(n1)C[C@H](NC(=O)[C@H](C(C)C)N(C)C(=O)N1CC(C3COC3)C1)C(=O)N1CCC[C@H](N1)C(=O)OCC(C)(C)C2", "10 to 100 nM"),
    ("CCn1c(-c2cccnc2[C@H](C)OC)c2c3cc(ccc31)-c1csc(n1)C[C@H](NC(=O)[C@H](C(C)C)N(C)C(=O)[C@H]1CCN(C(=O)/C=C/CN(C)C)C1)C(=O)N1CCC[C@H](N1)C(=O)OCC(C)(C)C2", "1000 to 10000 nM"),
    ("CCn1c(-c2cccnc2[C@H](C)OC)c2c3cc(ccc31)-c1csc(n1)C[C@H](NC(=O)[C@H](C(C)C)N(C)C(=O)N1CC(CO)C1)C(=O)N1CCC[C@H](N1)C(=O)OCC(C)(C)C2 (atropisomer, axis not shown)", "100 to 1000 nM"),
    ("CCn1c(-c2cccnc2[C@H](C)OC)c2c3cc(ccc31)-c1csc(n1)C[C@H](NC(=O)[C@H](C(C)C)N(C)C(=O)N1CCC13CCN(C)CC3)C(=O)N1CCC[C@H](N1)C(=O)OCC(C)(C)C2", "100 to 1000 nM"),
]
